Hey, just so you know, these numbers are from paper PMC12783166.

assay.details: Individual predicted steady-state exposures
Type: in vivo, human
condition.parameters: human, plasma, oral, 30 mg, Cmax, Median (5th to 95th percentile), CGP-MD-01 EM, 30 mg QD
outcome.measure: Cmax (ng/mL)
// note: answer is a bare numeric in ng/mL

Please report the recorded Cmax for `C[C@@H]1[C@H](c2c(F)ccc(F)c2F)C[C@H](NC(=O)c2cnc3c(c2)C[C@@]2(C3)C(=O)Nc3ncccc32)C(=O)N1CC(F)(F)F` .
247

----------
assay.details: Individual predicted steady-state exposures
Assay type: in vivo, human
condition.parameters: human, plasma, oral, 30 mg, Cmax, Median (5th to 95th percentile), CGP-MD-01 EM, 30 mg BID
outcome.measure: Cmax (ng/mL)
Kindly provide the numeric value in ng/mL only, without the unit symbol.

Which Cmax value is on record for C[C@@H]1[C@H](c2c(F)ccc(F)c2F)C[C@H](NC(=O)c2cnc3c(c2)C[C@@]2(C3)C(=O)Nc3ncccc32)C(=O)N1CC(F)(F)F [atogepant, Atogepant] ?
284

----------
assay.details: Individual predicted steady-state exposures
Type: in vivo, human
condition.parameters: human, plasma, oral, 30 mg, Cmax, Mean (SD), CGP-MD-01 EM, 30 mg QD
outcome.measure: Cmax (ng/mL)
Value expressed in ng/mL; do not type the unit.

Please look up its Cmax: `C[C@@H]1[C@H](c2c(F)ccc(F)c2F)C[C@H](NC(=O)c2cnc3c(c2)C[C@@]2(C3)C(=O)Nc3ncccc32)C(=O)N1CC(F)(F)F`
260

----------
assay.details: Individual predicted steady-state exposures
Assay type: in vivo, human
condition.parameters: human, plasma, oral, 30 mg, AUC24, Mean (SD), ADVANCE EM, 30 mg QD
outcome.measure: AUC
Form entry: enter the amount, then its unit.

For `C[C@@H]1[C@H](c2c(F)ccc(F)c2F)C[C@H](NC(=O)c2cnc3c(c2)C[C@@]2(C3)C(=O)Nc3ncccc32)C(=O)N1CC(F)(F)F` , what is its reported AUC?
1830 ng·h/mL

----------
assay.details: Individual predicted steady-state exposures
Assay type: in vivo, human
condition.parameters: human, plasma, oral, 10 mg, Cmax, Median (5th to 95th percentile), CGP-MD-01 EM, 10 mg QD
outcome.measure: Cmax (ng/mL)
Respond numerically; units are ng/mL and should not be typed.

Which Cmax is listed for C[C@@H]1[C@H](c2c(F)ccc(F)c2F)C[C@H](NC(=O)c2cnc3c(c2)C[C@@]2(C3)C(=O)Nc3ncccc32)C(=O)N1CC(F)(F)F [atogepant, Atogepant] ?
73.9

----------
assay.details: Individual predicted steady-state exposures
Format: in vivo, human
condition.parameters: human, plasma, oral, 60 mg, Cmax, Median (5th to 95th percentile), PROGRESS CM, 60 mg QD
outcome.measure: Cmax (ng/mL)
Value expressed in ng/mL; do not type the unit.

I would be grateful if you could share the reported Cmax for `C[C@@H]1[C@H](c2c(F)ccc(F)c2F)C[C@H](NC(=O)c2cnc3c(c2)C[C@@]2(C3)C(=O)Nc3ncccc32)C(=O)N1CC(F)(F)F` .
504

----------
assay.details: Individual predicted steady-state exposures
Assay type: in vivo, human
condition.parameters: human, plasma, oral, 60 mg, Cmax, Median (5th to 95th percentile), ADVANCE EM, 60 mg QD
outcome.measure: Cmax

Look up Cmax for this molecule: `C[C@@H]1[C@H](c2c(F)ccc(F)c2F)C[C@H](NC(=O)c2cnc3c(c2)C[C@@]2(C3)C(=O)Nc3ncccc32)C(=O)N1CC(F)(F)F`
504 ng/mL
